assay: soluble on expression in E. coli; label from the status in PepcDB or PDB records
readoutType: soluble on expression in E. coli

Recorded soluble on expression in E. coli, per entry:
residueCodes	soluble on expression in E. coli
MSTEDALCFTGEEYARHVREYWRGVAESDGFDSEDIRSPVVLTGLFHYDCQSGRRYPDPLLVKRYALLGLHRFNILQGTSFELDALQKFNKTMNLTSSYYITLLANEPGAIPLQKTFQVRVDERKYDTLDLTVAIARLKKDQNEAAETTKEPFVPHFCCSAVSDGVFQGPLPDWPSDDALRHDRNRFYELEKSEWQATDWISLYLELLILATDRGMFGVAQTGLPQVQILKVVIETEEENEKPLDKRLNARRAHVYITFTGLPKSPRLVEIGEHVERKAIIRRVIDDSGYLTLLGKFWSGKDTEQRSKTRQSEEKVESSQKRSRLC	soluble
MGSDKIHHHHHHMIHEQDVQKLLNYITSHFGVDPERWFHPEGYQSIALAILDSIYSTGNRYTGVLNLVNRYCGLRANEGSHPEADTATDLIETFYRWGGVDEFVLKTNNRWRTSSKIHAPYKAYAALEAAKVLAGHSIESISDVVGRFDSRESREHSDIAREWLMITGQSSALTWSYFLMLVGVPGVKADRMIVRFVTHVLERPKEISRHEASRLIEEVADIMCVNYIYLDHTIWRFQSGRPYLQEDSSPFE	not soluble
MGSDKIHHHHHHAEEKNLSEQWPVVASYQWAGQDSVVVCDLSLLKDTVDLPFSFFLKDFQIIKLDNRDEAMVGENNLCVSENYILVYGSVYELHPCRLFTKKGEFVTNIGAIGQGPGEYRAVYKAEIDEKHNCIYLMPFANSNAIYVYDLAGKPLRSIPLHQPVSKAVFKVDADKRELTVGALPFTGYPFVAWVQDFEGHLLDSVPAARHLSVLPDYSNEVMYGANTEVFDLYISTFFELRPDTLYHYIRSESRLKPRFTLNIGDRKRSITTFYELPQAYVGRLMVEEQVGDGMWETKSPSNFIVDKASLRGTFFRVINDFAGGMPDRLWTPWSLRNKQYIRLVEPGVLKAEIESYLSSTDGRKGKNRKKLQELCESIGEEDNSYVIYAKQKGVQ	not soluble
MTPRIEVAAPKEPITINMNVKIEHEIIIKADKDVEELLETRSDLFLEHHHHHH	not soluble

IN: Specify measured soluble on expression in E. coli for `MGSDKIHHHHHHMKGKHKVIVSTKRLKYEFELRRNLTIIQGDSATGKTTLVDMIRDFVNNPTGTPVEVICDKKCHVVEGSLWKEQLSGISDCIVFIDEGNEFITTVDFADKIQKTDNYYVIVTREALPALPYSVEEIYGIRTSGRYGTLKQSYHEFYRIYGTDTYEDKVSPEIIITEDSNSGYQFFEHVCIENGLKCESMNGKSNVFHYLNKHKGEKILVIADGAAFGSEIDRVLQVIHGRKNVALYLPESFEWMIMDADILKNNTVRSILSNPSEYVESKLYFSWERFFTAILIEQTKDTYLAYAKRKLNPAYLSGAIKESILRKMNIIDLNKKDE` .
OUT: not soluble

IN: Specify measured soluble on expression in E. coli for `MGSDKIHHHHHHMKVSVVILNWNGCDMLRTFLPSVIRYSKSEEVEVCVADNGSTDASVEMLREEFPCVRIIVLDQNHGFADGYNLALQQVEAEYVVLLNSDVEVTEHWLEPMISYLDGHPEVAACQPKIRSQRQKEYFEYAGAAGGFIDKYGYPFCRGRIMGVVEKDEGQYDTILPVFWATGAALFIRHADYREAGGLDGRFFAHMEEIDLCWRLRSRGREIVCIPQSTVYHVGGATLKKENPRKTFLNFRNNLVMLYKNLSDEELNKVMRIRTCLDYVAAFTFLLKGQLDNARAVMRARKEYKQICPSFSSSRKENLRKTSLNPIPERIKSSILWQFYVGGCKRFSQLSDLKG` .
OUT: not soluble

IN: Specify measured soluble on expression in E. coli for `EVQDVNDSSWKEFVLESEVPVMVDFWAPWCGPCKLIAPVIDELAKEYSGKIAVYKLNTDEAPGIATQYNIRSIPTVLFFKNGERKESIIGAVPKSTLTDSIEKYL` .
OUT: soluble

IN: Specify measured soluble on expression in E. coli for `MGEEEESLAILRRHVMNELLDTERAYVEELLCVLEGYAAEMDNPLMAHLISTGLQNKKNILFGNMEEIYHFHNRIFLRELESCIDCPELVGRCFLERMEEFQIYEKYCQNKPRSESLWRQCSDCPFFQECQKKLDHKLSLDSYLLKPVQRITKYQLLLKEMLKYSKHCEGAEDLQEALSSILGILKAVNDSMHLIAITGYDGNLGDLGKLLMQGSFSVWTDHKKGHTKVKELARFKPMQRHLFLHEKAVLFCKKREENGEGYEKAPSYSYKQSLNMTAVGITENVKGDTKKFEIWYNAREEVYIIQAPTPEIKAAWVNAIRKVLTSQLQACREASQHRALEQSHSLEHHHHHH` .
OUT: soluble

IN: Specify measured soluble on expression in E. coli for `MAGDPMGGAGLDNAQNVRNQTQNQTKPIHVSDRNEAFNRHNENEQFGYVRYQKEQFDGEQQKTPVMNREETAHMISSLTVQLPHIQDAATLVTDREALVVYKTDSKNRELTADQVKKTAASVIPRYYHVYISDNPNHMQSVENYSNLGSGSRDIREIMSGTIQEMKTSPQGSPVSENENANGETRQDMKIDRNDKNARLEHHHHHH` .
OUT: soluble

IN: Specify measured soluble on expression in E. coli for `MAHHHHHHMAKRKYMSKVDGKINVGEKHQAKIPDLVTDENEKTNVEETQPVENVNNVNDDVRKNKKAKTEQVEETTNNAAEEQVQQEEPVETAPAHEEPAHGEEAQGEEVQGEEAQGEEVQGEEVQGEEAHEEPANDEPANDEPANDEPANEEPANEEPANEEPANEEPANEEPANEEPANEEPANE` .
OUT: not soluble

IN: Specify measured soluble on expression in E. coli for `MREYKVVVLGSGGVGKSALTVQFVTGTFIEKYDPTIEDFYRKEIEVDSSPSVLEILDTAGTEQFASMRDLYIKNGQGFILVYSLVNQQSFQDIKPMRDQIVRVKRYEKVPLILVGNKVDLEPEREVMSSEGRALAQEWGCPFMETSAKSKSMVDELFAEIVRQMNYSSLPEKQDQCCTTCVVQ` .
OUT: not soluble

* * *

experiment: soluble on expression in E. coli; label from the status in PepcDB or PDB records
readoutType: soluble on expression in E. coli

residueCodes	reportedValue
MTLSEEVASLQRAAHDLMYLGMDGSPIYSDDLSRRNNEVYRLTTTLYNSGVQGSTVEEQASVCLALLMGYNASFIDHGEKREHVQKILDRCWDILDTLPASLLKLRLLTACYGEVFDEPLADEARAIIASWDSVSLTTEQQEAINEFQTVVDNPYPWEYVEE	not soluble
MGSDKIHHHHHHTIVSCSDDKGEDGYNPNLPVRISELSPQEGGYFDKVILQGENFGNNPKKVRVFFNKKEAIVVGASGDRVLVHVPKLPGDDCKIGMLLNGNTTDTIFAEKHFAYEKNYQLIYVAGQLNSNTETFVEGSLETTTFANSMQHLACDPSGVIYMNHKNQVKVAVLFTLMNLRTTLSFWIMEHLLKTEARLALRIMMTKQRRFTSVRTMLHFFGKLILRIHGLL	not soluble

* * *

assay: soluble on expression in E. coli; label from the status in PepcDB or PDB records

residueCodes	soluble on expression in E. coli
MGHHHHHHSHMMSPGLLLKPWWGGAQSEMGRNGMLEGCSVMSVGASRLGEGRVRPRAHSRRPVTRPRWRAAGPCTGTCQGGSHSRTLVLRLKAVSTTPTSANDLVQIKFRRDGGNRVVEALNLSEKRKDRKALCFSQSLHLQGEEIELTALSRSFQLRNVYFMISNI	not soluble
MKVLVSPMSVAEAIEAIEGGADIIDVKNPAEGSLGANFPWVIREISELAKKYGKEISATTGDMPYKPGTASLAALGAAVAGADYIKVGLYGVKNAEEAYEMMVGVVRAVKDFDSSKKVVAAGYGDYYRISSVSPLDLPEAVAKAGADIVMVDTAIKDGTSLFDHMKIGDIESFVKLARDNGLMVALAGNISWNHIETLKELSPDIIGVRSIVCEGDRSSMIKRELVVKLMEAVHG	not soluble
AQSSTDVIDQLFTALSGWFHGSEEKLGEFRGCFFINTSAEFSDDSGEIATYCRHHKQQVRELIQRYLKSDNTSLLDAICIMKEGAITTAYMTKEYDDVTKKCVEILHKL	not soluble

* * *

test: soluble on expression in E. coli; label from the status in PepcDB or PDB records
readoutType: soluble on expression in E. coli

residueCodes	readoutType	reportedValue
VDREQLVQKARLAEQAERYDDMAAAMKNVTELNEPLSNEERNLLSVAYKNVVGARRSSWRVISSIEQKTSADGNEKKIEMVRAYREKIEKELEAVCQDVLSLLDNYLIKNCSETQYESKVFYLKMKGDYYRYLAEVATGEKRATVVESSEKAYSEAHEISKEHMQPTHPIRLGLALNYSVFYYEIQNAPEQACHLAKTAFDDAIAELDTLNEDSYKDSTLIMQLLRDNLTLWTSDQQDDDGGEGNN	soluble on expression in E. coli	soluble
MAPKSILITGANRGIGLGLLKQFIKNKDVQIIIGTCRDPSNATELNSIKDTRVHILQLDIDCDDSIRKLGAEVEKLVGEDGLTVLINNAGIFVPYDIDGEKSRSTLIRQLETNTISTVLITQELLPLLKRAAAKNRGEGYSINRSAIINISSTAGSITKIDASYNIPLVAYRMSKSALNSFGKSCSVDLAKYHILVTTFCPGWVKTDMGGANGKLEIDDATKTLSDNILILGDAHHGAYLNADLTVIPN	soluble on expression in E. coli	soluble
MGVILLLLIIVFSFSKEAYYCIQVLSSRDLSSAERAYRKLADYPHARIEKIGDYYTVRVGLWENKSKAKEYLSQVKSVYPGAFLRTCYYIEDRIVSINKGNVKKKVESFNGKELVLHGKNEKELICKAVKKVFEDIVSFEGKLTKREITFKSYFPYSVADAVNYALILNKKEGFIPVRCRVYKRDKITYVLELEGFKNGKVKGIKAVDYASVTYRNKVLRLKLIF	soluble on expression in E. coli	not soluble
MGSDKIHHHHHHMHKDVSQLPQKANPALVKQANLFADLPTKLIEDFQQEFQLNQWNKGDYINSDILTQRFFVVIEGNIEIKQSNPDTGREATLDMLYAGDCFDLMVLLDNQPHEVIISPLTTVKLLSVKLSTMRYWLWTYPEFNQQFMPYIAKKMREKEQQASSLILHDVTTRLSRIILEHINKIKFYTGTKEEEHQHHLVNGLNDETLARMTGSVRQVINKQLQHWKKEDVIDKKRNQLIIKDLEALEKEAKYTQNLANAPLSKS	soluble on expression in E. coli	not soluble
MYFPAAIDTSLAAEDLGIWAPIDHQRIISLLTIGLGVLYHREKAISLEPLPETMLDEGKASPVPDISLRDNSASQTPIIIEVCHTNGLKGDLRKVIQLIDDGDYGIQEGFIYDYRAGTWVLYRSGGDGLTQSTSFSDILQLDLNQFL	soluble on expression in E. coli	not soluble

Let us examine a further case.
IN: Specify measured soluble on expression in E. coli for `MGSDKIHHHHHHMFSSEVIASFNELEMSIYNYICQHAEKVAYMRIRELADETHVSTATILRFCRKVDCDGFSEFKVKLKMHLEKEKKAPIKSSQHAIAEFFERAFRGDLEERISEAAALVADAENVIFIGIGSSGILAEYGARYFSALGKLSMYIKDFSYPIHSKLRQNSVTIALSVSGETHFTITQVNQLKQEGSKIISITNNKFSTIAKVADVNLSYYVSEEFFEKANITTQVPVVYILEAMARELYKLQG` .
OUT: not soluble

Where these numbers come from: the DeepSol protein solubility set
